target: CDK2 (UniProt P24941); assay: Enzyme Assay
pIC50: −log10 of the molar value.
Could you please report measured pIC50 for the items listed next?

Some molecules with known pIC50 results, for comparison:
Data request: Look up pIC50 for this molecule: O=C(N[C@H]1CC[C@H](N2CCS(=O)(=O)CC2)CC1)c1n[nH]cc1NC(=O)c1c(F)cccc1F
Data returned: > 4.70

Data request: Entry to check: COc1ccc(F)cc1C(=O)Nc1c[nH]nc1C(=O)NC1CCN(C)CC1
Data returned: > 4.70

Data request: Entry to check: O=C(Nc1c[nH]nc1C(=O)NC1CCNCC1)c1ccccc1N1CCOCC1
Data returned: > 4.70

Data request: Entry to check: O=C(NCc1cccnc1)c1n[nH]cc1NC(=O)c1c(F)cccc1F
Data returned: > 4.70

Data request: Entry to check: O=C(Nc1c[nH]nc1C(=O)NCC1CC1)c1cccc2c1OCCO2
Data returned: > 4.70

Respectfully, I request pIC50 for each entry included below.
1. O=C(NC1CCNCC1)c1n[nH]cc1NC(=O)c1c(Cl)cncc1Cl
2. COc1cccc(F)c1C(=O)Nc1c[nH]nc1C(=O)NC1CCC(C(C)(C)C)CC1 (stereo unspecified)
3. CC(C)(C)C1CCC(NC(=O)c2n[nH]cc2NC(=O)c2ccc(CN3CCCC3)o2)CC1 (stereo unspecified)
4. CN1CCC(C(=O)Nc2c[nH]nc2C(=O)NCC2CC2)CC1
5. COc1cccc(F)c1C(=O)Nc1c[nH]nc1C(=O)N[C@H]1CC[C@H](O)CC1
6. O=C(Nc1c[nH]nc1C(=O)NC1CCNCC1)c1cc(F)cc(F)c1
7. CC(C)(C)C1CCC(NC(=O)c2n[nH]cc2NC(=O)c2ccccc2)CC1 (stereo unspecified)

Data returned:
1: > 4.70; 2: > 4.70; 3: > 4.70; 4: > 4.70; 5: > 4.70; 6: > 4.70; 7: > 3.12

###

target: CDK2 (UniProt P24941); assay: Enzyme Assay
Could you please report measured IC50 for the items listed next?

Some compounds with known IC50 results, for comparison:
Data request: Look up IC50 for this compound: O=C(N[C@H]1CC[C@H](O)CC1)c1n[nH]cc1NC(=O)c1c(F)cccc1Cl
Data returned: < 20 µM

Data request: Entry to check: CC(C)(C)C1CCC(NC(=O)c2n[nH]cc2NC(=O)c2ccc(F)cc2)CC1 (stereo not given)
Data returned: < 750 µM

Data request: Entry to check: O=C(NC1CCN(c2cccc(Cl)n2)CC1)c1n[nH]cc1NC(=O)c1c(F)cccc1F
Data returned: < 20 µM

Data request: Entry to check: CC(C)(C)OC(=O)N1CCC(NC(=O)c2n[nH]cc2NC(=O)c2ccccc2)CC1
Data returned: < 20 µM

Data request: Entry to check: O=C(NCc1ccco1)c1n[nH]cc1NC(=O)c1c(F)cccc1F
Data returned: < 20 µM

Respectfully, I request IC50 for each entry included below.
1. COc1cccc(F)c1C(=O)Nc1c[nH]nc1C(=O)NC1CCN(C)CC1
2. O=C(NCc1ccccc1)Nc1c[nH]nc1C(=O)N[C@H]1CC[C@H](O)CC1
3. O=C(NC1CCC(CO)CC1)c1n[nH]cc1NC(=O)c1c(F)cccc1F (stereo not given)
4. CN1CCC(N2CCC(NC(=O)c3n[nH]cc3NC(=O)c3c(F)cccc3F)CC2)CC1
5. CO[C@H]1CC[C@H](NC(=O)c2n[nH]cc2NC(=O)c2c(Cl)cccc2Cl)CC1

Data returned:
1: < 20 µM; 2: < 750 µM; 3: < 20 µM; 4: < 20 µM; 5: < 20 µM
